The measured values listed here are drawn from PubChem BioAssay (NCATS).

assay.name: Quantitative highthroughput screen to assess conditional lethalithy of SEM cells grown in RPMI1640 with dialyzed fetal bovine serum (RPMI+ds) (AID 1963884); further: nearly all actives have a fitted effect of over 35% in size;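 on viability: 100% = DMSO control wells and 0% = empty wells without cells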
condition.label: SEM B-ALL cells, RPMI+dialyzed FBS, CellTiter-Glo viability, 48 h; series mostly up to 45.8 µM
Records with an inconclusive call do not appear. Active and inactive are the calls of the source. The call rests on the fitted dose curve; in most records, active means well fitted cell-killing curve with a large enough effect; inconclusive means small, poorly fitted or top-dose-only effect, or effect the other way; inactive means no such curve, though single readings can be large or run the other way.
Choose one outcome from this list and give only that: label 1 = active, label 0 = inactive

Data request: Record request — test call for Cc1cc2cc3c(C)cc(=O)oc3c(C)c2o1
Data returned: label 0

Data request: Recorded test outcome, item CC1(C)S[C@H]2[C@H](NC(=O)[C@@H](N)c3ccc(O)cc3)C(=O)N2[C@@H]1C(=O)O
Data returned: label 0

Data request: Write down the call the test reported for this compound. Item: CC(C)(OCc1nn(Cc2ccccc2)c2ccccc12)C(=O)O
Data returned: label 0

Data request: Look up the recorded call for Nc1ccn([C@@H]2CS[C@H](CO)O2)c(=O)n1 in this test.
Data returned: label 0

Data request: Look up the recorded call for CNC(=O)c1c(-c2ccc(F)cc2)oc2cc(N(CCO)S(C)(=O)=O)c(C3CC3)cc12 in this test.
Data returned: label 1

Data request: GET /call?item= COc1cc(OC)c(C(=O)CCCN2CCCC2)c(OC)c1 returns the recorded outcome of this test.
Data returned: label 0

====

assay.name: Cellular viability qHTS for adrenocortical cancer (ACC) cell line SW-13 (AID 1963989); further: potency means the concentration at half of the fitted maximal effect; nearly all actives have a fitted effect of over 65% in size
condition.label: SW-13 ACC cells viability, CellTiter-Glo, 48 h
Inconclusive results are not listed. Calls of active or inactive are those of the source. The call rests on the fitted dose curve; in most records, active means well fitted cell-killing curve with a large enough effect; inconclusive means small, poorly fitted or top-dose-only effect; inactive means flat fitted curve, though single readings scatter.
outcome.measure: Potency

Record excerpt, results attached:
INSERT INTO measurements (chemical_smiles, outcome_measure, meas_value) VALUES
  ('COc1ccc(CCN(C)CCCOc2ccc(S(=O)(=O)c3[nH]c4ccccc4c3C(C)C)cc2)cc1OC', 'Potency', '28.2 µM (active)'),
  ('Cc1cc2nc3ccc(=[N+](C)C)cc-3sc2cc1N', 'Potency', '4.61 µM (active)'),
  ('CC[C@H](CC#N)OC(=O)N[C@@H](C)c1cccc(NC(=O)Nc2ccc(-c3cnco3)c(OC)c2)c1', 'Potency', '28.2 µM (active)'),
  ('CCN(CC)CCNc1ccc(C)c2sc3ccccc3c(=O)c12', 'Potency', '25.1 µM (active)'),
  ('CCCCOC(=O)NS(=O)(=O)c1sc(CC(C)C)cc1-c1ccc(Cn2ccnc2)cc1', 'Potency', '28.2 µM (active)'),
  ('CCN(CC)CCNC(=O)c1ccc2nc(-c3ccccc3)c(-c3ccc(CN4CCC(n5c(=O)[nH]c6ccccc65)CC4)cc3)nc2c1', 'Potency', '6.31 µM (active)'),
  ('Cn1cc(CNCC2CCN(c3ncc(C(=O)NO)cn3)CC2)c2ccccc21', 'Potency', '1.26 µM (active)'),
  ('Cc1ccc(-c2nn(C(C)(C)CNC(=O)c3ccncc3)c3ncnc(N)c23)cc1', 'Potency', '8.91 µM (active)');

Measured Potency of CCCCCCCCCCCCCC[N+](C)(C)Cc1ccccc1 : 6.51 µM (active)

Query O=c1cc(N2CCOCC2)oc2c(-c3cccc4c3sc3ccccc34)cccc12 yields Potency of 25.1 µM (active)

====

assay.name: Viability qHTS for spleen associated tyrosine kinase inhibitor (SYKi) naive MV4-11 cells (AID 1963823); further: nearly all actives have a fitted effect of over 40% in size
condition.label: MV4-11 AML viability, CellTiter-Glo luminescence, 72 h; series mostly up to 45 µM
Inconclusive results are not listed. Calls of active or inactive are those of the source. Calls follow the shape of the dose curve; as a rule, active = well fitted cell-killing curve with a large enough effect; inconclusive = small, poorly fitted or top-dose-only effect, or effect the other way; inactive = no such curve, though single readings can be large or run the other way.
Choose the fitting class; nothing outside yes (1) for active, no (0) for inactive is accepted.

Some solved entries appear below for comparison.
INSERT INTO results (molecule, assigned_label) VALUES
  ('O=C(O)c1ccc(-c2c[nH]c3ncc(-c4ccccc4)cc23)cc1C1CCCC1', 'yes (1)'),
  ('COc1cc2nc(C3CC3)nc(N3CCN(c4ccccc4OC)CC3)c2cc1OC', 'yes (1)'),
  ('Nc1nc2c(ncn2COC(CO)CO)c(=O)[nH]1', 'no (0)'),
  ('CCOC(=O)CN1CCCC1=O', 'no (0)'),
  ('O=c1c(-c2ccc(O)cc2)coc2c([C@@H]3O[C@H](CO)[C@@H](O)[C@H](O)[C@H]3O)c(O)ccc12', 'no (0)'),
  ('C=C(C)[C@@H]1CC[C@]2(C)CC[C@]3(C)[C@H](CC[C@@H]4[C@@]5(C)CC[C@@H](O)C(C)(C)[C@@H]5CC[C@]43C)[C@@H]12', 'no (0)'),
  ('C=CCc1ccccc1OCC(O)CNC(C)C (centres undefined)', 'no (0)'),
  ('CC[C@H]1OC(=O)C[C@@H](O)[C@H](C)[C@@H](O[C@@H]2O[C@H](C)[C@@H](O)[C@H](N(C)C)[C@H]2O)[C@@H](CCN2C[C@H](C)C[C@H](C)C2)C[C@@H](C)C(=O)/C=C/C(C)=C/[C@@H]1CO[C@@H]1O[C@H](C)[C@@H](O)[C@@H](OC)[C@H]1OC', 'no (0)'),
  ('CCOC(=O)C(C)(C)Oc1ccc(Cl)cc1', 'no (0)'),
  ('O=S(=O)(c1cccc2c(I)cccc12)N1CCCNCC1', 'yes (1)');

Data request: Status in this test for O=C(/C=C/c1ccc(O)cc1)O[C@@H]1C[C@@](O)(C(=O)O)C[C@@H](O)[C@@H]1O ?
Data returned: no (0)

Data request: # lookup: test call for O=c1[nH]c(-c2ccc(C(F)(F)F)cc2)nc2c1CSCC2
Data returned: yes (1)

Data request: Short answer needed: outcome of this test for COc1c(Cl)cc2c([nH]c3cnccc32)c1NC(=O)c1cccnc1C ?
Data returned: yes (1)

Data request: Could you check what this test reported for COc1c2c(c(C)c3c1C(=O)OC3)OC1(C)CC(O)C3(O)C(C)(C)OC(=O)CCC3(C)C1C2 (centres undefined) ?
Data returned: no (0)

Data request: Status in this test for COC(=O)[C@H](CC1C=NC=N1)NCC12CC3CC(CC(C3)C1)C2 (some centres undefined) ?
Data returned: no (0)

Data request: Hi, sorry to bother you, what did the test record for COc1ccc(C[C@@H](C)[C@@H](C)Cc2ccc(OC)c(OC)c2)cc1OC ?
Data returned: yes (1)

Data request: Could you please tell me the result logged for COc1ccc(C2(O)c3ccccc3NC(=O)C2O)cc1 (centres undefined) in this assay?
Data returned: no (0)

Data request: Record lookup: outcome of this test for CC(C)C[C@H](NC(=O)CNC(=O)c1cc(Cl)ccc1Cl)B(O)O ?
Data returned: yes (1)

Data request: Which outcome was assigned to CC(=O)O[C@@H]1CC2C3CCc4cc(OC(=O)c5ccccc5)ccc4C3CCC2(C)[C@H]1OC(C)=O (some centres undefined) in this test?
Data returned: no (0)
